Below is a list of entries, each paired with its recorded IC50 value.
Target: Recombinant human IDO (Homo sapiens)
Test: Bridge-IT tryptophan fluorescence assay of human IDO-1 inhibition
Conditions: recombinant human IDO 7.5 nM, L-tryptophan
Experimental: Measurement of human IDO-1 inhibition is performed in 384 well format using the Bridge-IT® tryptophan Fluorescence Assay (Mediomics, LLC, St. Louis, Mo., U.S.A.). The reaction is initiated by the addition of L-Tryptophan (Sigma) at a final concentration of 100 μM in assay buffer. […] Measurement of human IDO-1 inhibition was performed in 384-well format using the BRIDGE-IT® tryptophan Fluorescence Assay (Mediomics, LLC, St. Louis, Mo., U.S.A.). […]

Field: example entries. Status: answers known.
Request the reported IC50 associated with CC(C)(O)C1CCC(F)(CCC2c3c(F)cccc3-c3cncn32)CC1 (stereo not drawn) [Compound 86a]
100 to 1000 nM

Request the reported IC50 associated with CC1(C)CCC(F)(CCC2c3ncccc3-c3cncn32)CC1 (single isomer, unassigned) [Compound 48a]
> 1000 nM

Request the reported IC50 associated with CN(C)C(=O)C1CCC(F)(CCC2c3c(F)cccc3-c3cncn32)CC1 (mixture of isomers) [Compound 111a]
< 100 nM

Next:
Request the reported IC50 associated with OC1CCC(F)(CCC2c3ncccc3-c3cncn32)CC1 (mixture of isomers) [Compound 7b]
> 1000 nM

Request the reported IC50 associated with OC1CCC(F)(CCC2c3c(F)ccc(F)c3-c3cncn32)CC1 (single isomer, unassigned) [Compound 38d]
< 100 nM

Request the reported IC50 associated with OC(CC1c2cnccc2-c2cncn21)C1CCCCC1 (stereo not drawn)
> 1000 nM

Request the reported IC50 associated with FC1(F)CCC(F)(CCC2c3c(Cl)cccc3-c3cncn32)CC1 (single isomer, unassigned) [Compound 72a]
> 1000 nM

Request the reported IC50 associated with CN(C)C(=O)C1CCC(F)(CCC2c3c(Cl)cccc3-c3cncn32)CC1 (single isomer, unassigned) [Compound 114a]
< 100 nM

Request the reported IC50 associated with FC1(CCC2c3ncccc3-c3cncn32)CCC2(CC1)CC2 (single isomer, unassigned) [Compound 30a]
100 to 1000 nM

Request the reported IC50 associated with OC(CC1c2nc(F)ccc2-c2cncn21)C1CCC(F)(F)CC1 (single isomer, unassigned) [Compound 26a]
> 1000 nM

====

Molecular target: Recombinant human IDO (Homo sapiens, UniProt P14902)
Sequence (P14902 whole entry): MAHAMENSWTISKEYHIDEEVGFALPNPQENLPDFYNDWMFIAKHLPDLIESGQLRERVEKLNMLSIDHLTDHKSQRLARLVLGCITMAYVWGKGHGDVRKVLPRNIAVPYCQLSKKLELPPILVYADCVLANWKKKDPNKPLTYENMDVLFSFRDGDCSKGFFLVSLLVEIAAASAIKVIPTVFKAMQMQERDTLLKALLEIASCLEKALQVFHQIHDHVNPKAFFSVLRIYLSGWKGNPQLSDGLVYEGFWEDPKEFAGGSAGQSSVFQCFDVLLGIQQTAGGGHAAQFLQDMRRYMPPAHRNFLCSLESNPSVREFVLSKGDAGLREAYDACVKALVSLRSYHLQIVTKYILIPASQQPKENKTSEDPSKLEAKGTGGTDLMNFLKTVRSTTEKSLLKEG
Test: Bridge-IT tryptophan fluorescence assay of human IDO-1 inhibition
Conditions: recombinant human IDO 7.5 nM, L-tryptophan
Description: Measurement of human IDO-1 inhibition is performed in 384 well format using the Bridge-IT® tryptophan Fluorescence Assay (Mediomics, LLC, St. Louis, Mo., U.S.A.). The reaction is initiated by the addition of L-Tryptophan (Sigma) at a final concentration of 100 μM in assay buffer. […] Measurement of human IDO-1 inhibition was performed in 384-well format using the BRIDGE-IT® tryptophan Fluorescence Assay (Mediomics, LLC, St. Louis, Mo., U.S.A.). […]
pIC50: −log10 of the molar value.
Assay Metric: pIC50

Field: example entries. Status: answers known.
Request the reported pIC50 associated with CC(C)(O)C1CCC(F)(CCC2c3ccccc3-c3cncn32)CC1 (single isomer, unassigned) [Compound 61b]
< 6.00

Request the reported pIC50 associated with OC(CC1c2c(Cl)cccc2-c2cncn21)C1(F)CCCCC1 (single isomer, unassigned) [Compound 83a]
< 6.00

Request the reported pIC50 associated with NS(=O)(=O)C1CCC(F)(CCC2c3ccccc3-c3cncn32)CC1 (single isomer, unassigned) [Compound 121d]
> 7.00

Now, please, on to the next compound.
Request the reported pIC50 associated with OC(CC1c2ncccc2-c2cncn21)C1CCC(C2(O)CC2)CC1 (single isomer, unassigned) [Compound 117a]
< 6.00
